System: UACC-257 melanoma
Assay: NCI-60 one-dose screen, 48 h (100 = growth as untreated, 0 = no growth, -100 = all killed)
Settings: 10 µM unless noted
This is part of a sample that, as a whole, favours compounds with a hit. Of some 83,000 tested, about 20% had one in any assay. Calls of active or inactive are those of the source. How the source made its calls: active means growth percent below 10; inactive means the rest.
quantity-name: growth

{"item-smiles": "Oc1cccc2ccc(N/N=C/c3cc(CN4CCCCC4)c(O)c4ncccc34)nc12", "measured-target": "UACC-257 melanoma", "reported-result": "13.4% (inactive)"}
{"item-smiles": "Cc1cc(N(CCCNc2ccnc3cc(Cl)ccc23)Cc2ccco2)nc(N2CCN(C)CC2)n1", "measured-target": "UACC-257 melanoma", "reported-result": "-63.2% (active)"}
{"item-smiles": "CC1(C)[C@@H](O)CC[C@]2(C)[C@H]3CC[C@@H]4[C@H]5[C@H](C(=O)/C=C/c6ccc(C(F)(F)F)cc6)CC[C@]5(CO)CC[C@@]4(C)[C@]3(C)CC[C@@H]12", "measured-target": "UACC-257 melanoma", "reported-result": "67.4% (inactive)"}
{"item-smiles": "Brc1ccc2[nH]cc(-c3nc(-c4c[nH]c5ncccc45)cs3)c2c1", "measured-target": "UACC-257 melanoma", "reported-result": "-6.38% (active)"}
{"item-smiles": "Cc1ccc(Sc2sc(-c3ccccc3)nc2[P+](c2ccccc2)(c2ccccc2)c2ccccc2)cc1", "measured-target": "UACC-257 melanoma", "reported-result": "2.98% (active)"}
{"item-smiles": "Cc1ccncc1C(=O)O", "measured-target": "UACC-257 melanoma", "reported-result": "102% (inactive)"}
{"item-smiles": "COc1ccc2c(c1)c1nc3cc(C)c(C)cc3nc1n2CCN(C)C", "measured-target": "UACC-257 melanoma", "reported-result": "8.99% (active)"}
{"item-smiles": "O=[N+]([O-])c1cc(S(=O)(=O)c2ccc(F)c([N+](=O)[O-])c2)ccc1F", "measured-target": "UACC-257 melanoma", "reported-result": "75.4% (inactive)"}

Origin of measurements: PubChem BioAssay (NCI)
